system_name: purified human placenta 20S proteasome (Homo sapiens, UniProt P28074)
readout_name: pIC50
Bear in mind: pIC50 is minus log10 of a mol/L concentration; give just that figure.

// worked examples, pIC50 included
>  <compound>
COc1ccc(CNC(C(=O)NC(C(=O)NCc2ccc(OC)cc2O)C(C)C)C(O)C(Cc2ccccc2)NC(=O)CNC(=O)OCc2ccccc2)cc1 (centres unmarked)

>  <pIC50>
5.05

$$$$
>  <compound>
COc1ccc(CNC(C(=O)NC(C(=O)NCc2ccc(OC)cc2O)C(C)C)C(O)C(Cc2ccccc2)NC(=O)C(NC(=O)OCc2cccc(C)c2)C(C)(C)C)cc1 (centres unmarked)

>  <pIC50>
6.30

$$$$
>  <compound>
COc1ccc(CNC(C(=O)NC(C(=O)NCc2ccc(OC)cc2O)C(C)C)C(O)C(Cc2ccccc2)NC(=O)C(NC(=O)OCc2cccc(N)c2)C(C)(C)C)cc1 (centres unmarked)

>  <pIC50>
6.22

$$$$
>  <compound>
COc1ccc(CNC(C(=O)NC(C(=O)NCc2ccc(OC)cc2O)C(C)C)C(O)C(Cc2ccccc2)NC(=O)C(NC(=O)OCc2cc(C)cc(C)c2)C(C)(C)C)cc1 (centres unmarked)

>  <pIC50>
5.96

$$$$

// next item, pIC50 requested
Can you share its pIC50? I mean this compound: COc1ccc(CN[C@@H](C(=O)N[C@H](C(=O)NCc2ccc(OC)cc2O)C(C)C)[C@@H](O)[C@H](Cc2ccccc2)NC(=O)[C@@H](NC(=O)OCC2CCCCC2)C(C)(C)C)cc1
6.00

Numbers sourced from patent US20050026994A1.
